target: NCK2 2|1|3 full-length recombinant protein (SH3-shuffled, tag-free) (mouse, UniProt O55033 114-170; O55033 60-113; O55033 2-59; O55033 171-380); experiment: FP
Sequence (O55033 other isoform, or with tags, fused parts or gaps): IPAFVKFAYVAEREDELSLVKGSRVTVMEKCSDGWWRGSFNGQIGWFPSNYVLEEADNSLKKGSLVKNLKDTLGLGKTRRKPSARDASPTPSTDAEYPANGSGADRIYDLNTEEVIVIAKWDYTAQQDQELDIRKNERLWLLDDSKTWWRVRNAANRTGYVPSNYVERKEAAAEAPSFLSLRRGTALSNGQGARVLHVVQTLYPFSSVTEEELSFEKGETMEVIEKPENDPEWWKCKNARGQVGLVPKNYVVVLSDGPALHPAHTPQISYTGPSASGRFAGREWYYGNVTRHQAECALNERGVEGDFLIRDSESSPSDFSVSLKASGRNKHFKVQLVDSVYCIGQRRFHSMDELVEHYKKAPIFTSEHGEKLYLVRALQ
No end group written: not given here.
measure.name: Kd

{"columns": ["binder", "measurement"],
 "data": [
  ["RGQNKERPPPVPNPDY (also: fluorescein isothiocyanate-conjugated (position not given here)) [Cd3ε peptide (RGQNKERPPPVPNPDY), fluorescein isothiocyanate-conjugated]", "18 µM"]
]}
